Every entry's value here was drawn from patent US20220402916A1.

# Measurement target: Biotinylated KRAS G12C protein (Homo sapiens, UniProt P01116, C118S/C51S/C80L/G12C)
# Construct: 183 amino acids; biotin on K10
# Sequence (P01116 with tags, fused parts or gaps isoform P01116-2 G12C/C51S/C80L/C118S): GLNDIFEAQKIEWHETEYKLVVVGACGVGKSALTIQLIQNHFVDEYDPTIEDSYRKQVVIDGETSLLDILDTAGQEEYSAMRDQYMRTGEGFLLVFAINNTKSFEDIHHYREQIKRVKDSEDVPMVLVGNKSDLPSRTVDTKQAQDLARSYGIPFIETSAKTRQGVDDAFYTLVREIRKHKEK
# Protocol: SOS-catalyzed nucleotide exchange assay
# Assay type: biochemical
# Applied conditions: 10,000 nM; 60 minutes of preincubation prior to addition of SOS
Documented inhibition at 10 µM across a set of molecules
Numeric only. Scale: %

Ask | Item `C=CC(=O)N1CCN(c2cc(C(=O)NCCN3CCOCC3)nc3c2CCN(c2cccc4ccccc24)C3)CC1` has what recorded inhibition at 10 µM?
Reply | 33

Ask | How about this molecule: `C=CC(=O)N1CCN(c2cc(C(=O)N(C)CCN(C)C)nc3c2CCN(c2cccc4cccc(C)c24)C3)CC1`
Reply | 33

Ask | Param item: C=CC(=O)N1CCN(c2cc(C(=O)N[C@H]3COC[C@@H]3N3CCOCC3)nc3c2CCN(c2cccc4cccc(C)c24)C3)CC1 (racemic)
Reply | 39

Ask | Cool, now `C=CC(=O)N1CCN(c2cc(C(=O)N3CCC[C@@H]3CN3CCC(=O)N3)nc3c2CCN(c2cccc4cccc(C)c24)C3)CC1`
Reply | 33

Ask | Request: `C=CC(=O)N1C[C@H](C)N(c2cc(C(=O)NCCN(C)C)nc3c2CCN(c2cccc4cccc(C)c24)C3)C[C@H]1C`
Reply | 38

Ask | Next entry: C=CC(=O)N1CCN(c2cc(C(=O)NCC3CN(C)CCO3)nc3c2CCN(c2cccc4cccc(C)c24)C3)CC1 (racemic)
Reply | 31

Ask | Same thing, different molecule: `C=CC(=O)N1CCN(c2cc(C(=O)NCCCN(C)C)nc3c2CCN(c2cccc4ccccc24)C3)CC1`
Reply | 23

----------
# Measurement target: Biotinylated KRAS G12C protein (Homo sapiens, UniProt P01116, C118S/C51S/C80L/G12C)
# Construct: 183 amino acids; biotin on K10
# Protocol: SOS-catalyzed nucleotide exchange assay
# Format: biochemical
# Applied conditions: apparent potency; preincubation time of 60 minutes prior to addition of SOS
Measured parameter: log10(IC50) (log10 of the value in nM)
Recorded IC50 (log10, nM)

The cases that follow already have their log10(IC50) on record.
# Compound, Recorded measurement
records = [
    ("C=CC(=O)N1CCN(c2cc(C(=O)N[C@H]3CCC[C@@H]3N3CCOCC3)nc3c2CCN(c2cccc4cccc(C)c24)C3)CC1 (racemic) [Compound 34]", 3.55),
    ("C=CC(=O)N1CCN(c2cc(C(=O)NCCC3(N)CCCCC3)nc3c2CCN(c2cccc4cccc(C)c24)C3)C[C@@H]1CC#N [Compound 92]", 1.30),
    ("C=CC(=O)N1CCN(c2cc(C(=O)NC3(C)CCCNC3)nc3c2CCN(c2cccc4cccc(C)c24)C3)C[C@@H]1CC#N (mixture of isomers) [Compound 102]", 0.73),
    ("C=CC(=O)N1CCN(c2cc(C(=O)N[C@H](C)CN(C)C)nc3c2CCN(c2cccc4cccc(C)c24)C3)CC1 [Compound 12]", 1.82),
    ("C=CC(=O)N1CCN(c2cc(C(=O)NC(C)CN3CCC(C)(O)C3)nc3c2CCN(c2cccc4cccc(C)c24)C3)C[C@@H]1CC#N (single isomer, unassigned) [Compound 74]", 0.73),
    ("C=CC(=O)N1CCN(c2cc(C(=O)N[C@@H](C)CN)nc3c2CCN(c2cccc4ccccc24)C3)C[C@@H]1CC#N [Compound 62]", 1.71),
    ("C=CC(=O)N1CCN(c2cc(C(=O)NC(C)CN3CCC(C)(O)C3)nc3c2CCN(c2cccc4cccc(C)c24)C3)C[C@@H]1CC#N (single isomer, unassigned) [Compound 73]", 0.99),
    ("C=CC(=O)N1CCN(c2cc(C(=O)N[C@@H]3CCC[C@H]3N(C)C)nc3c2CCN(c2cccc4cccc(C)c24)C3)C[C@@H]1CC#N (mixture of isomers) [Compound 66]", 0.00),
    ("C=CC(=O)N1CCN(c2cc(C(=O)N[C@H]3COC[C@@H]3N3CCN(C)CC3)nc3c2CCN(c2cccc4cccc(C)c24)C3)CC1 (racemic) [Compound 33]", 3.82),
    ("C=CC(=O)N1CCN(c2cc(C(=O)NCC3CCN(C)C3)nc3c2CCN(c2cccc4cccc(C)c24)C3)CC1 (racemic) [Compound 58]", 3.39),
]

Ask | State the recorded log10(IC50) for this entry: C=CC(=O)N1CCN(c2cc(C(=O)NC(C)CCN(C)C)nc3c2CCN(c2cccc4cccc(C)c24)C3)CC1 (racemic) [Compound 21]
Reply | 3.50

Ask | Repeat for the following compound: C=CC(=O)N1CCN(c2cc(C(=O)NC[C@@H]3CCCN3)nc3c2CCN(c2cccc4cccc(C)c24)C3)C[C@@H]1CC#N [Compound 97]
Reply | 1.18
